Biological target: hERG potassium channel (Homo sapiens)
Construct: Eurofins (contract assay) 265900
Sequence (Q12809 whole entry): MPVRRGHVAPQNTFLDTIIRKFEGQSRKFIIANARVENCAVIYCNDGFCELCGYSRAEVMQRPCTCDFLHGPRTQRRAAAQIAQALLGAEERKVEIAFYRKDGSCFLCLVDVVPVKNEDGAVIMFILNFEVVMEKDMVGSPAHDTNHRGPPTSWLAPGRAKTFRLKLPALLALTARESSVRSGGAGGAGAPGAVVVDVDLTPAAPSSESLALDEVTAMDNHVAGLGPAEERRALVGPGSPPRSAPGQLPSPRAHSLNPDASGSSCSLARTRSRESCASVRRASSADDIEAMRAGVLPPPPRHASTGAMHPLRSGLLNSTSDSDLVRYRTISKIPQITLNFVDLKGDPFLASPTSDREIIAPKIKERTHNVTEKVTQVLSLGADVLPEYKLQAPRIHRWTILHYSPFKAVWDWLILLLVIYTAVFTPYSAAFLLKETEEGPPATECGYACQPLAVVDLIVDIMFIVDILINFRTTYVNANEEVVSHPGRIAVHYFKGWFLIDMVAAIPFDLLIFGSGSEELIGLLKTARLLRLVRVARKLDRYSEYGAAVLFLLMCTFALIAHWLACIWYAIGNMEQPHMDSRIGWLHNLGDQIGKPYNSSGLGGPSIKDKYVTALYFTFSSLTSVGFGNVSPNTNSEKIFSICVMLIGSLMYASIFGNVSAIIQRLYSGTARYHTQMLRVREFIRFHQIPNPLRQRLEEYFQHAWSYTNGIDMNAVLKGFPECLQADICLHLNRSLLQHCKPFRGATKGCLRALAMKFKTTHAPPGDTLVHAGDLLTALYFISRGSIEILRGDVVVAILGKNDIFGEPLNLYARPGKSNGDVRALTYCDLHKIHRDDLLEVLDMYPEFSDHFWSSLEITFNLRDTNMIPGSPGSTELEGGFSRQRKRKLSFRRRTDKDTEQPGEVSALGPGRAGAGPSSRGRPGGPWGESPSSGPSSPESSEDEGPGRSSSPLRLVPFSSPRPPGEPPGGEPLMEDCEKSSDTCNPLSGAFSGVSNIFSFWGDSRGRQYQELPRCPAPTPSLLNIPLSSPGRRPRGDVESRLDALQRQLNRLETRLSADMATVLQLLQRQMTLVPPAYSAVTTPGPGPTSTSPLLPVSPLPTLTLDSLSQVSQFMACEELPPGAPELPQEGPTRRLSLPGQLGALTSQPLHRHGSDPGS
Test: Receptor binding 265900
Conditions: crude membrane preparations
Method: Radioligand binding to a panel of receptors was carried out by Eurofins on crude membrane preparations according to published procedures and by using appropriate reference standard (Eurofins, CVie 101 compound code PT #1207859, study #AB76416, quote #68407-1, for Cvie Therapeutics Limited, Taiwan (R.OC.) on Mar. 5, 2017). CVie 101 was tested at the concentration of 10 μM. […]

| MOLECULE | TARGET_OR_TEST_SYSTEM | UNIT_LABEL | inhibition at 10 µM |
| --- | --- | --- | --- |
| C[C@]12CC[C@H](O)C[C@H]1CCC1C2CC[C@]2(C)[C@@H](c3c[nH]cn3)CC[C@]12O (stereo partly shown) | hERG potassium channel (Homo sapiens) | % | 4 |

---

Assay: Bioavailability in rats
Details: rat, in vivo, 10 mg/kg

| MOLECULE | half-life, h |
| --- | --- |
| C[C@]12CC[C@H](O)C[C@H]1CCC1C2CC[C@]2(C)[C@@H](c3c[nH]cn3)CC[C@]12O (stereo partly shown) | 2.21 |

---

Molecular target: SERCA2a (Canis lupus familiaris)
Construct: pre-incubated with 2 μg of microsomes; from tissue; host or cells: dog heart left ventricle, SR microsomes
Experiment: SERCA2a ATPase activity in heart-derived SR microsomes from normal dog
Type: biochemical
Details: compound 100 nM; mean ± SD
In this section we review reported Vmax (SERCA2a ATPase activity) values for a set of compounds.
ATTRIBUTE_MEASURED: Vmax (SERCA2a ATPase activity)

| COMPOUND | ATTRIBUTE_MEASURED | RESULT_VALUE |
| --- | --- | --- |
| C[C@]12CC[C@H](O)C[C@H]1CCC1C2CC[C@]2(C)[C@@H](c3cc(CCCN)on3)CC[C@]12O (stereo partly shown) [CVie 107] | Vmax (SERCA2a ATPase activity) | 2.751 ± 0.171 (n = 3) μmol/min/mg prot |
| C[C@]12CC[C@H](O)C[C@H]1CCC1C2CC[C@]2(C)[C@@H](c3cc[nH]n3)CC[C@]12O (stereo partly shown) [CVie 103] | Vmax (SERCA2a ATPase activity) | 2.688 ± 0.285 (n = 7) μmol/min/mg prot |
| C[C@]12CC[C@H](O)C[C@H]1CCC1C2CC[C@]2(C)[C@@H](c3c[nH]cn3)CC[C@]12O (stereo partly shown) [CVie 101] | Vmax (SERCA2a ATPase activity) | 2.832 ± 0.198 (n = 7) μmol/min/mg prot |
| C[C@]12CC[C@H](O)C[C@H]1CCC1C2CC[C@]2(C)[C@@H](CCc3cc(CCN)on3)CC[C@]12O (stereo partly shown) [CVie 109] | Vmax (SERCA2a ATPase activity) | 2.889 ± 0.305 (n = 4) μmol/min/mg prot |

---

In this section we review reported % increase vs Control (SERCA2a Vmax) values for a set of compounds.
Biological target: SERCA2a (Canis lupus familiaris)
Construct: pre-incubated with 2 μg of microsomes; from tissue; host or cells: dog heart left ventricle, SR microsomes
Experiment: SERCA2a ATPase activity in heart-derived SR microsomes from normal dog
Assay type: biochemical
Settings: compound 10 nM

| COMPOUND | % increase vs Control (SERCA2a Vmax) / %* |
| --- | --- |
| C[C@]12CC[C@H](O)C[C@H]1CCC1C2CC[C@]2(C)[C@@H](c3csc(N=C(N)N)n3)CC[C@]12O (stereo partly drawn) [CVie 102] | 13 |
| C[C@]12CC[C@H](O)C[C@H]1CCC1C2CC[C@]2(C)[C@@H](c3c[nH]cn3)CC[C@]12O (stereo partly drawn) [CVie 101] | 15 |
| C[C@]12CC[C@H](O)C[C@H]1CCC1C2CC[C@]2(C)[C@@H](/C=C/c3cc(CN)on3)CC[C@]12O (stereo partly drawn) [CVie 110] | 18 |
| C[C@]12CC[C@H](O)C[C@H]1CCC1C2CC[C@]2(C)[C@@H](c3cc[nH]n3)CC[C@]12O (stereo partly drawn) [CVie 103] | 11 |
| C[C@]12CC[C@H](O)C[C@H]1CCC1C2CC[C@]2(C)[C@@H](CCc3cc(CCCN)on3)CC[C@]12O (stereo partly drawn) [CVie 108] | 16 |
| C[C@]12[C@H](O)CC3C(CC[C@@H]4C[C@@H](O)CC[C@]34C)[C@@]1(O)CC[C@@H]2c1c[nH]cn1 (stereo partly drawn) [CVie 104] | 20 |

---

Target: SERCA2a (Canis lupus familiaris)
Construct: pre-incubated with 2 μg of microsomes; from tissue; host or cells: dog heart left ventricle, SR microsomes
Assay: SERCA2a ATPase activity in heart-derived SR microsomes from normal dog
Assay type: biochemical
Details: compound 1 nM
Marks after values point to notes of the source that are not given here.

| COMPOUND | % increase vs Control (SERCA2a Vmax) |
| --- | --- |
| C[C@]12CC[C@H](O)C[C@H]1CCC1C2CC[C@]2(C)[C@@H](c3cn(CCCN)cn3)CC[C@]12O (stereo partly drawn) | 22% * |
| C[C@]12[C@H](O)CC3C(CC[C@@H]4C[C@@H](O)CC[C@]34C)[C@@]1(O)CC[C@@H]2c1c[nH]cn1 (stereo partly drawn) | 11%* |
| C[C@]12CC[C@H](O)C[C@H]1CCC1C2CC[C@]2(C)[C@@H](c3csc(N=C(N)N)n3)CC[C@]12O (stereo partly drawn) | 25%* |

---

Target: SERCA2a (Canis lupus familiaris, UniProt O46674)
Construct: pre-incubated with 2 μg of microsomes; from tissue; host or cells: dog heart left ventricle, SR microsomes
Sequence (O46674 whole entry): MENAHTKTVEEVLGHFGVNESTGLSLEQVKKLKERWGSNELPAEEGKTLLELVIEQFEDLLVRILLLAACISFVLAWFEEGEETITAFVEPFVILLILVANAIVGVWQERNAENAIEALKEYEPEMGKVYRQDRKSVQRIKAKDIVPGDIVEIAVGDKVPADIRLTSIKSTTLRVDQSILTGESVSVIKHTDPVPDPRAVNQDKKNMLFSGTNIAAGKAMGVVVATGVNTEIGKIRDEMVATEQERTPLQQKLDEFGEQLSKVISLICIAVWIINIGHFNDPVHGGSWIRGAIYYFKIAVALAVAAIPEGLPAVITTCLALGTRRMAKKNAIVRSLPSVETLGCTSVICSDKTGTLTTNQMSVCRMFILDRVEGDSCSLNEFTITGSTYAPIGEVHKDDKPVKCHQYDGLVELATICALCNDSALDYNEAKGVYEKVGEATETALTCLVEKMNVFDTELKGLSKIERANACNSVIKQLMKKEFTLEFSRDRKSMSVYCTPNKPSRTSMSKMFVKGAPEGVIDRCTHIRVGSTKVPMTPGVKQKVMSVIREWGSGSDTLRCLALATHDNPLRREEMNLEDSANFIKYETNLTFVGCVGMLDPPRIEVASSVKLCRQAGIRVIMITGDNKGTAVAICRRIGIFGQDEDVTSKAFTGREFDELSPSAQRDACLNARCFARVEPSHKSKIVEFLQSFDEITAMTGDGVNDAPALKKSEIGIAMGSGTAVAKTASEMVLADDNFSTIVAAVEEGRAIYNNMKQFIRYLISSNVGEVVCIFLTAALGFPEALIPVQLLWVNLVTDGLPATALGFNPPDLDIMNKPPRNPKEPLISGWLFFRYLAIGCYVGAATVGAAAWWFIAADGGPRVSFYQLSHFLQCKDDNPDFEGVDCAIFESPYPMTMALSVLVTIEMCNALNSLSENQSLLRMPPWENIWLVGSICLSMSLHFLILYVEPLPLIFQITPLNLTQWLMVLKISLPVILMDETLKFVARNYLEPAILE
Experiment: SERCA2a ATPase activity in heart-derived SR microsomes from normal dog
Type: biochemical
Conditions: compound 10 nM
In this section we review reported % increase vs Control (SERCA2a Vmax) values for a set of molecules.

| MOLECULE | TARGET_OR_TEST_SYSTEM | % increase vs Control (SERCA2a Vmax) |
| --- | --- | --- |
| C[C@]12CC[C@H](O)C[C@H]1CCC1C2CC[C@]2(C)[C@@H](c3cc(CCCN)on3)CC[C@]12O (stereo partly drawn) [CVie 107] | SERCA2a (Canis lupus familiaris, UniProt O46674) | 7% |
| C[C@]12CC[C@H](O)C[C@H]1CCC1C2CC[C@]2(C)[C@@H](c3cn(CCCN)cn3)CC[C@]12O (stereo partly drawn) [CVie 106] | SERCA2a (Canis lupus familiaris, UniProt O46674) | 15% |
| C[C@]12CC[C@H](O)C[C@H]1CCC1C2CC[C@]2(C)[C@@H](CCc3cc(CCN)on3)CC[C@]12O (stereo partly drawn) [CVie 109] | SERCA2a (Canis lupus familiaris, UniProt O46674) | 14% |
